biological target: Glutamate carboxypeptidase 2 (Homo sapiens, UniProt Q04609); experiment: Inhibition of recombinant human PSMA using [3H]NAAG as substrate preincubated for 15 mins followed by substrate addition measured after 20 mins by liquid scintillation method
Sequence (Q04609 whole entry): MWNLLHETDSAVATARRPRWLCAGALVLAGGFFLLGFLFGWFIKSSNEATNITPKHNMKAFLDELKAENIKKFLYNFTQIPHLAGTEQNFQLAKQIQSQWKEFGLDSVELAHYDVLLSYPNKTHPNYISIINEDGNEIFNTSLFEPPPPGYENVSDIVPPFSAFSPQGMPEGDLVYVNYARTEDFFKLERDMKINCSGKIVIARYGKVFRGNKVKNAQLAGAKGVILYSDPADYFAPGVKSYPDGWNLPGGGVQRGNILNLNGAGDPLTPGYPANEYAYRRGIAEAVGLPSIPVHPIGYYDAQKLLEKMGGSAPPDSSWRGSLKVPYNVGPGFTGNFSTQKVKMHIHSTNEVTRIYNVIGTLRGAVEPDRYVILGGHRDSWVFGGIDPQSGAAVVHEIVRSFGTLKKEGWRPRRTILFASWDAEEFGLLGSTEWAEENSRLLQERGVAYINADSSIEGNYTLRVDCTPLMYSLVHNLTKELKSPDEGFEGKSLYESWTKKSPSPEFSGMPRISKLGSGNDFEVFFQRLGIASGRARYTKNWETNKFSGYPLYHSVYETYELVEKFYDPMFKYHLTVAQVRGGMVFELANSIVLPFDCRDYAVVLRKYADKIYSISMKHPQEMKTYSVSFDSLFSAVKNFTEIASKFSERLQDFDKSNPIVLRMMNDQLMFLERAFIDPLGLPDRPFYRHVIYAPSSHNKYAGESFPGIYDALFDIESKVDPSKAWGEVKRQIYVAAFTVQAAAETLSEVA
measured_quantity: log10 IC50 (log10 of the value in nM)

chemical_string: O=C(O)CC[C@H](NC(=O)N[C@@H](CCCC(=O)NCc1ccccc1F)C(=O)O)C(=O)O
log10 IC50: 0.32

chemical_string: O=C(O)CC[C@H](NC(=O)N[C@@H](CCCC(=O)N(CCNC(=O)c1ccc(F)nc1)c1ccccc1)C(=O)O)C(=O)O
log10 IC50: -0.89

chemical_string: C[C@H](NC(=O)CCC[C@H](NC(=O)N[C@@H](CCC(=O)O)C(=O)O)C(=O)O)c1ccc(F)nc1
log10 IC50: 0.65

chemical_string: CN(C(=O)CCC[C@H](NC(=O)N[C@@H](CCC(=O)O)C(=O)O)C(=O)O)c1ccc(F)nc1
log10 IC50: -1.12

chemical_string: O=C(O)CC[C@H](NC(=O)N[C@@H](CCCC(=O)N(CCNC(=O)c1ccc(F)cc1)c1ccccc1)C(=O)O)C(=O)O
log10 IC50: -0.82

chemical_string: O=C(O)CC[C@H](NC(=O)N[C@@H](CCCC(=O)N1CCN(c2ccc(F)cc2)CC1)C(=O)O)C(=O)O
log10 IC50: 0.12

chemical_string: O=C(O)CC[C@H](NC(=O)N[C@@H](CCCC(=O)Nc1ccc(F)cc1)C(=O)O)C(=O)O
log10 IC50: -0.46

chemical_string: CN(Cc1ccc(F)cc1)C(=O)CCC[C@H](NC(=O)N[C@@H](CCC(=O)O)C(=O)O)C(=O)O
log10 IC50: -0.19
